I'd be grateful if you could share measured z-score for these entries.
assay: plasmodial surface anion channel blockers, osmotic lysis – cell-based, P. falciparum Indochina, OD700, 2 h, primary screen (AID 1155);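 also: lysis reports solute entry through the parasite surface anion channel PSAC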; conditions: P. falciparum Indochina infected erythrocytes, higher = more signal, called active from +8 up or from −8 down
Reply briefly: the number, and no unit.

[ask] Name the recorded z-score of the item N#Cc1ccc(C(O)C2C=CC3C(=O)N(c4ccccc4)C(=O)C3N2Nc2ccccc2F)cc1 (stereo unspecified) in your answer.
[reply] -0.245

[ask] Name the recorded z-score of the item COC(=O)[C@@]1(Cc2ccc(OC)cc2)[C@H]2c3cc(C(=O)N4CCCC4)n(CCCNc4ncc(C(F)(F)F)cc4Cl)c3C[C@H]2CN1C(=O)c1ccccc1 in your answer.
[reply] 1.37

[ask] Name the recorded z-score of the item CCN(CC)c1ccc(N2CC=CC34O[C@@H]5/C=C\CCC(C)OC(=O)C5[C@H]3C(=O)N(CCCCCO)[C@@H]4C2=O)cc1 (stereo partly specified) in your answer.
[reply] -0.928

[ask] Name the recorded z-score of the item C=C(C)[C@@H]1CC=C(C(O)C2C=CC3C(=O)NC(=O)C3N2Nc2ccc(Cl)cc2Cl)CC1 (stereo partly specified) in your answer.
[reply] 1.4

[ask] Name the recorded z-score of the item COCC(=C=CC[C@H](O)c1ccccc1OCCO)CCO in your answer.
[reply] -0.0718

[ask] Name the recorded z-score of the item O=C1OCC=C[C@H]2OC34C=CCN(Cn5nnc6ccccc65)C(=O)[C@H]3N(CCCCCO)C(=O)[C@@H]4[C@@H]12 (stereo partly specified) in your answer.
[reply] 0.212

[ask] Name the recorded z-score of the item COc1ccc([Si](C)(C)[C@@H]2[C@@H](CCn3cc([C@H](O)c4ccccc4)nn3)O[C@]3(C(=O)N(Cc4cccc(N5CCC5=O)c4)c4ccccc43)[C@H]2C)cc1 in your answer.
[reply] 2.06

[ask] Name the recorded z-score of the item COC(=O)[C@@]1(Cc2ccccc2)[C@H]2c3cc(C(=O)N4CCCC4)n(Cc4c(CO)[nH]cc(C)c4=O)c3C[C@H]2CN1C(=O)c1ccccc1 in your answer.
[reply] 0.32

[ask] Name the recorded z-score of the item CC(c1ccccc1)C(O)C1C=CC2C(=O)N(C)C(=O)C2N1NC(=O)OC(C)(C)C (stereo unspecified) in your answer.
[reply] 0.871

[ask] Name the recorded z-score of the item CC#CC(=O)Oc1ccc(Br)cc1C=CC(=O)OCC in your answer.
[reply] 7.06

[ask] Name the recorded z-score of the item CC(C)(C)OC(=O)CC[C@@]1(C(=O)N2CCCCC2)N=C(c2ccc(OCCCO)cc2)O[C@@H]1c1ccccc1 in your answer.
[reply] 19.2

[ask] Name the recorded z-score of the item CO[C@H]1O[C@H](CO)[C@@H](OC(=O)Nc2ccc(Oc3ccccc3)cc2)[C@H](OC(=O)Nc2ccc3c(c2)OCO3)[C@@H]1OC(=O)Nc1ccc2c(c1)OCO2 in your answer.
[reply] 2.93

[ask] Name the recorded z-score of the item COc1ccc([C@H]2C[C@H]3C(I)=C[C@@H]2C(=O)[C@]32CO2)cc1 in your answer.
[reply] 0.0528

[ask] Name the recorded z-score of the item OCCCC1=CC(C2CC2)N(Cc2cccc(OC(F)(F)F)c2)CC1 (stereo unspecified) in your answer.
[reply] 0.539

[ask] Name the recorded z-score of the item NCCCCCCNC(=O)[C@H]1C[C@H]2C(=O)N[C@@H](Cc3ccccc3)C(=O)N2[C@H]1c1cccc(OCCO)c1 in your answer.
[reply] 0.944

[ask] Name the recorded z-score of the item COCCOC(=O)N1C(=O)[C@@]2(c3ccccc31)[C@H](C(=O)N1CCCCCCC1)[C@H]1C(=O)O[C@H](c3ccccc3)[C@H](c3ccccc3)N1[C@@H]2c1ccc(OCCO)cc1 in your answer.
[reply] 1.89

====

experiment: compounds binding Alexa647 anti-His antibody – biochemical, small-molecule microarray, 635 nm fluorescence, artefact control for SMM control protein annotation, primary screen (AID 1128); conditions: higher = more signal;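 also: score merges feature fluorescence with signal-to-noise for each printed compound spot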
test readout: composite z-score
Reply briefly: the number, and no unit.

[ask] Name the recorded composite z-score of the item CC(C)NC(=O)[C@@]1(Cc2ccccc2I)c2ccccc2C(=O)N(Cc2ccccc2Cl)[C@H]1c1ccc(CO)cc1 in your answer.
[reply] 2.99

[ask] Name the recorded composite z-score of the item CCCC=C(CCC)[C@@H](NC(=O)OCC(C)C)c1ccccc1 in your answer.
[reply] 0.665

[ask] Name the recorded composite z-score of the item COc1ccc(C(=O)Nc2cccc(CN3C(=O)[C@]4(O[C@H](CCn5cc(CCO)nn5)[C@@H]([Si](C)(C)c5ccc(OC)cc5)[C@@H]4C)c4ccccc43)c2)cc1 in your answer.
[reply] -0.0471

[ask] Name the recorded composite z-score of the item COC(=O)c1c2oc(c1C(=O)OC)C(=O)N[C@@H](C(C)C)Cn1cc(nn1)C1(CCCCC1)NC(=O)N[C@H](CO)CC2 in your answer.
[reply] 0.591

[ask] Name the recorded composite z-score of the item CN(C)CCCC[C@@H]1NC(=O)[C@H]2C[C@@H](C(=O)NCCCCCN)[C@@H](c3cccc(OCCO)c3)N2C1=O in your answer.
[reply] 2.91

[ask] Name the recorded composite z-score of the item O=C1O[C@@H](c2ccccc2)[C@@H](c2ccccc2)N2[C@@H](c3ccc(OCCO)cc3)[C@]3(C(=O)Nc4ccc(C#CC5=CCCCC5)cc43)[C@@H](C(=O)N3CCCCCCC3)[C@H]12 in your answer.
[reply] 1.41

[ask] Name the recorded composite z-score of the item O=C1C[C@@](C(=O)NCc2ccccc2)(c2ccc([N+](=O)[O-])cc2)[C@@H](c2ccc(CO)cc2)N1CC12CC3CC(CC(C3)C1)C2 in your answer.
[reply] 0.729

[ask] Name the recorded composite z-score of the item CC(=O)n1cc(C(O)C2C=CC3C(=O)NC(=O)C3N2Nc2ccccn2)c2ccccc21 (stereo not given) in your answer.
[reply] 0.426

[ask] Name the recorded composite z-score of the item C=CC[C@]1(C(=O)NCc2ccccc2)N=C(c2ccc(OCCCO)cc2)O[C@H]1c1ccccc1CN=[N+]=[N-] in your answer.
[reply] 1.25

[ask] Name the recorded composite z-score of the item COCCOC(=O)N1C(=O)[C@@]2(c3cc(C#CC4(O)CCCCCC4)ccc31)[C@H](C(=O)Nc1nc3ccccc3s1)[C@H]1C(=O)O[C@H](c3ccccc3)[C@H](c3ccccc3)N1[C@@H]2c1ccccc1OCCO in your answer.
[reply] 2.46

[ask] Name the recorded composite z-score of the item CO[C@H]1O[C@H](CO)[C@@H](OC(=O)Nc2cccc(F)c2)[C@H](OC(=O)Nc2ccccc2)[C@H]1OC(=O)Nc1ccccc1 in your answer.
[reply] 2.02

[ask] Name the recorded composite z-score of the item COC(=O)[C@@]1(Cc2ccc(OC)cc2)[C@H]2c3cc(C(=O)N(C)C)n(Cc4ccc(C(F)(F)F)nc4)c3C[C@H]2CN1C(=O)c1ccccc1 in your answer.
[reply] 0.598

[ask] Name the recorded composite z-score of the item O=C(NCc1ccccc1)[C@@H]1c2ccccc2C(=O)N(C2Cc3ccccc3C2)[C@H]1c1ccc(CO)cc1 in your answer.
[reply] 0.526

[ask] Name the recorded composite z-score of the item COc1ccc([C@H]2C[C@H]3C(I)=C[C@@H]2C(=O)[C@]32CO2)cc1 in your answer.
[reply] -0.608

[ask] Name the recorded composite z-score of the item CCOC(=O)C1=CC[C@H]2C(=O)N(c3ccccc3)C(=O)[C@@H]12 in your answer.
[reply] 2.18

====

assay: blockers of DNA damage checkpoint Chk1 activation – imaging, HeLa, hydroxyurea, phospho-Chk1 antibody, percent positive cells, primary screen (AID 1186); conditions: hydroxyurea-induced phospho-Chk1 immunofluorescence imaging, higher = more signal
Output true for z-score not less than -0.3; output false otherwise.

[ask] Could you verify whether the entry COCCOC(=O)N1C(=O)[C@@]2(c3cc(C#CC4(O)CCCCCC4)ccc31)[C@H](c1ccccc1OCCO)N1[C@H](c3ccccc3)[C@H](c3ccccc3)OC(=O)[C@H]1[C@@H]2C(=O)N1CCc2cc(OC)c(OC)cc2C1 shows z-score of no less than -0.3?
[reply] true

[ask] Could you verify whether the entry O=C1OCCC=C[C@H]2OC34C=CCN(c5ccc(Cl)cc5)C(=O)[C@H]3N(CCCO)C(=O)[C@@H]4C12 (some centres not stated) shows z-score of no less than -0.3?
[reply] false

[ask] Could you verify whether the entry C=CC[C@]12N=C(c3ccc(OCCCO)cc3)O[C@H]1c1ccccc1N(CCS(=O)(=O)c1ccccc1)C2=O shows z-score of no less than -0.3?
[reply] false

[ask] Could you verify whether the entry O=C1NC(=O)C2C1C=CC(C(O)C=Cc1ccc([N+](=O)[O-])cc1)N2Nc1ccc(Cl)cc1Cl (configuration not stated) shows z-score of no less than -0.3?
[reply] true

[ask] Could you verify whether the entry CC1CC/C=C\[C@H]2OC34C=CCN(Cn5nnc6ccccc65)C(=O)[C@H]3N(CCCCCO)C(=O)[C@@H]4C2C(=O)O1 (some centres not stated) shows z-score of no less than -0.3?
[reply] false

[ask] Could you verify whether the entry COCCCNC(=O)[C@@H]1c2ccccc2C(=O)N(Cc2ccccc2OC)[C@H]1c1ccc(CO)cc1 shows z-score of no less than -0.3?
[reply] false

[ask] Could you verify whether the entry C=CC[C@@]1(C(=O)N2CCCCC2)N=C(c2ccc(OCCCO)cc2)O[C@@H]1c1ccccc1N=[N+]=[N-] shows z-score of no less than -0.3?
[reply] false

[ask] Could you verify whether the entry O=C1NC(=O)C2C1C=CC(C(O)c1ccc(I)cc1)N2Nc1ccccn1 (configuration not stated) shows z-score of no less than -0.3?
[reply] true

[ask] Could you verify whether the entry [N-]=[N+]=NCc1ccccc1[C@H]1OC(c2ccc(OCCCO)cc2)=N[C@@]1(Cc1ccccc1)C(=O)N1CCCCC1 shows z-score of no less than -0.3?
[reply] false

[ask] Could you verify whether the entry OB1C=CCC(CCc2ccccc2)O1 (configuration not stated) shows z-score of no less than -0.3?
[reply] false

[ask] Could you verify whether the entry CCCC[C@H]1C[C@@H]1[C@@H]1N(P(=O)(c2ccccc2)c2ccccc2)C[C@@](O)(c2ccccc2)CC12CC2 shows z-score of no less than -0.3?
[reply] true

[ask] Could you verify whether the entry CC(c1ccccc1)C(O)C1C=CC2C(=O)N(c3ccccc3)C(=O)C2N1Nc1ccccc1 (configuration not stated) shows z-score of no less than -0.3?
[reply] true

[ask] Could you verify whether the entry CC(C)(C)OC(=O)CC[C@]1(C(=O)NCCN2CCOCC2)COC(c2ccc(OCCCO)cc2)=N1 shows z-score of no less than -0.3?
[reply] true

[ask] Could you verify whether the entry COC(=O)c1c(CC[C@@H](CO)NC(=O)NCCc2c[nH]c3ccccc23)oc(C(=O)Cc2ccccc2)c1C(=O)OC shows z-score of no less than -0.3?
[reply] true

[ask] Could you verify whether the entry OCCCC1=CC(C2CC2)N(Cc2cccc(OC(F)(F)F)c2)CC1 (configuration not stated) shows z-score of no less than -0.3?
[reply] true

[ask] Could you verify whether the entry O=C(CS)NCCCCCNC(=O)[C@H]1C[C@H]2C(=O)NCC(=O)N2[C@H]1c1cccc(OCCO)c1 shows z-score of no less than -0.3?
[reply] false

Data origin: PubChem BioAssay
